- Tested on: K4 kissing-loop RNA reporter
- assay.notes: apparent KD of K4 kissing-loop reporter; higher = weaker reporter binding
- test.conditions: Eterna round: R107; input ligand: tryptophan 2.4 mM
assay.metric: apparent KD of K4 kissing-loop reporter (nM)
Field format: number, assumed nM, no unit text.

Example sequences with recorded apparent KD of K4 kissing-loop reporter:
{"seq.string": "GGGAGUAUUGCGGCCGCCACUGAGGAAGAAGAAGGCCAUAGUGAUGUUAUGGAGGAAAGGAAGAACAGGACCGGGCAGUAGAUUU [#22 K4 Tryptophan B Same State]", "units": "nM", "quantitative.result": 127}
{"seq.string": "GGAUAGGACAGAGGAUAUCCUUGAGGCAAGAAACUUGUCUCUAAAGGAUGAAUCCUAGUGAUGUUAGGAGAAGGCUGUCCUAUCG [FmnBX 14 - #SwitchBubble #StaticStem #Palindromic]", "units": "nM", "quantitative.result": 87.1}

Field request: apparent KD of K4 kissing-loop reporter | item: AAGAGCUAGGCGGCCGCCACUAGUUGUGAACACGUACAAGCCAGUGAUGUUGGUAUGAUGGACGGUAGGACCGGGCCUAGCUGAA [Exclusion - Tryptophan B (Freestyle 14)] 294

Would you mind doing UGUACCGAGUCAGGAUAUGGUAUACCGGAAACGGACCAGUGAUGUUGGAGGCGAAAGCCAUAAAAUCCAGAAGGGACUUGGUACU [FmnBS 19 #SwitchBubble #StaticStem #DoubleMagnetSystem] as well? 411

Could you do the same for ACUGUACCGGGAAGGAGCGUGAAUGAGAAUGGAUAUAGUGAUGUUAUGUAUACGAACGAAUCGCAGGUAGGUCGCCCGGAUCCCU [SSArgB.aC] , please? 553

* * *

- Test system: MS2 coat protein
- assay.notes: apparent KD of MS2 coat protein; designed switch direction (-1 OFF switch, 1 ON switch): 1; higher = weaker reporter binding
- test.conditions: input ligand: none
Recorded apparent KD of MS2 coat protein for the following sequences
Enter your answer as a number in nM; do not include the unit.

Please review the following examples before continuing.
{"seq.string": "UUGUGUUUGCGAGGAUAUCGUUUGUUGAAGUUACGAGAAGGCGCUCUCAUUACAUGAGGAUCACCCAUGUCUUUGAUGCAUGAU [JR_SSNG1_Sub071] (Eterna round: R96, puzzle: Same State NG 1)", "assay.metric": "apparent KD of MS2 coat protein", "units": "nM", "quantitative.result": 68.2}
{"seq.string": "GUUACAUGAGGAUCACCCAUGUAUGUGUGGGAGUAAGUGUCUUAGGAUAUCUAGUAUUUAAUUAAAGAGAAGGAAGAUUGUUGU [JMF's solution 66] (Eterna round: R96, puzzle: Same State NG 3)", "assay.metric": "apparent KD of MS2 coat protein", "units": "nM", "quantitative.result": 116}
{"seq.string": "UUGCGGAAUUAAGGAUAUUGAGUACAUAUGUUUAACAUGAGGAUCACCCAUGUGGGUUGCGGUAUCGAGAAGGUAACUUACUAC [salish99_SSNG2_r04_803] (Eterna round: R96, puzzle: Same State NG 2)", "assay.metric": "apparent KD of MS2 coat protein", "units": "nM", "quantitative.result": 102}
{"seq.string": "GUUACAUGAGGAUCACCCAUGUAUGUGUGGGAGUAAGUGUCUUAGGAUAUCUAUAAUUUAAAUUAAGAGAAGGAAGAUUGUUGU [JMF's solution 10] (Eterna round: R96, puzzle: Same State NG 3)", "assay.metric": "apparent KD of MS2 coat protein", "units": "nM", "quantitative.result": 115}
{"seq.string": "UGUACAUGAGGAUCACCCAUGUCUAGACAUGUUAAUAUAAUGUAGGAUAUAUAAUAUUUAAAUUAAUAGAAGGACAAUUUUUUU [JMF's solution 3] (Eterna round: R96, puzzle: Same State NG 3)", "assay.metric": "apparent KD of MS2 coat protein", "units": "nM", "quantitative.result": 234}

I have this sequence here, UUGCUCGUGUGAGGAUAUGCCGCCGUUUCGGCUGCAGAAGGUGCUACGUUACAUGAGGAUCACCCAUGUCUCUGUUGUUUCGUG [salish99_SSNG1_r04_941] (Eterna round: R96, puzzle: Same State NG 1) , and I need its recorded apparent KD of MS2 coat protein. 21.1

Cool, now AAUUAAGAUCAAGGAUAUCACGUCGAUUAGACGUGAGAAGGUGAUCAUAACAUGAGGAUCACCCAUGUAUUACAUGAAUUAAUU [SSNG1/2-B2] (Eterna round: R96, puzzle: Same State NG 1) 397

Next up: CUGCUCGUGUGAGGAUAUGCCGCCGUUUCGGCUGCAGAAGGUGCUACGUUACAUGAGGAUCACCCAUGUCUCUGUUGUUUCGUA [salish99_SSNG1_r04_948] (Eterna round: R96, puzzle: Same State NG 1) 35.9

Here is the next sequence: GGAUGAUAGACAGGAUAUUGAUUGUAAUUAGGACAAGAAGGGUCAAUGAUUUAAACGACCAGUUACAUGAGGAUCACCCAUGUU [JR_SSNG1_Sub026] (Eterna round: R96, puzzle: Same State NG 1) 55.3

* * *

- Tested on: K4 kissing-loop RNA reporter;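 further: bound reporter read as fluorescence of individual clusters on recovered sequencing chips by microscopy, with normalized cluster intensities fitted with a binding model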
- assay.notes: apparent KD of K4 kissing-loop reporter; higher = weaker reporter binding
- test.conditions: Eterna round: R107; input ligand: FMN 200 uM
assay.metric: apparent KD of K4 kissing-loop reporter
The reply should read as a number followed by its unit.

Guide cases for apparent KD of K4 kissing-loop reporter, answers given:
{"seq.string": "CCAUCGCUAUUCGAUACCAGCUACUUAGUGAUGUUAAGUUAAAAUCCAUUGUAGAUGGAAAGCCCUUGGCAGCGAAUAGUGAUGG [Theophylline B K4 22]", "apparent KD of K4 kissing-loop reporter": "440 nM"}
{"seq.string": "GAUACCACGUUAGAUACCAGCUUCGUUGACUUGGGUAGUAGUCGAACUUCAGUGAUGUUGAGCCCUUGGCAGCUACAGAUGUGCG [theeternabot_exclusion_KL_Theo_B_38]", "apparent KD of K4 kissing-loop reporter": "657 nM"}

# apparent KD of K4 kissing-loop reporter lookup, item UUUUUAUAAGAGGAUACCAGUACAAAUAAAGUACAUUAAUAGUAGAGUGAUGUUCUAAAGUACCCUUGGCAGCUUAGAGUAAGUU [ExTheophylB.C] 161 nM

* * *

- System: MS2 coat protein
- assay.notes: apparent KD of MS2 coat protein; designed switch direction (-1 OFF switch, 1 ON switch): -1; higher = weaker reporter binding
- test.conditions: input ligand: FMN 200 uM
Examples of sequences with documented apparent KD of MS2 coat protein follow.

Below: 2 sequences and their reported apparent KD of MS2 coat protein.
{"seq.string": "AGCUAGUCAGGAUAUACGCAAACGAACGAAGCAGUGAAGGGACAUGAGGAUCACCCAUGUAGAAGGGACUAGCA [Diamond 30] (Eterna round: R96, puzzle: Exclusion 2)", "apparent KD of MS2 coat protein": "0.121 µM"}
{"seq.string": "CGUCUGUCAGGAUAUGGUUACAUAGACAUGAGGAUCACCCAUGUGACGUGGGACUAGUGAUUAGAAGGGACGAACG [EX5 #69] (Eterna round: R97, puzzle: Exclusion 5)", "apparent KD of MS2 coat protein": "0.0365 µM"}

// switching to the query sequence
For the sequence AAUUAGUCAGGAUAUACAUGAGGAUCACCCAUGUAAACUUUUAGUUUAAUUUGAAUGUGUAGAAGGGACAUUAA [Ex3 #48] (Eterna round: R97, puzzle: Exclusion 3) , what apparent KD of MS2 coat protein is on record? 0.0254 µM

* * *

// values below are reported apparent KD of MS2 coat protein
- Test system: MS2 coat protein
- assay.notes: apparent KD of MS2 coat protein; designed switch direction (-1 OFF switch, 1 ON switch): -1; higher = weaker reporter binding
- test.conditions: input ligand: none

Here's what some known entries look like.
{"seq.string": "AUAAUACAUGUAGGAUAUCUGCACGAUUAGUGCAGAGAAGGACAUGAGGAUCACCCAUGUAAUUAAGAUCAAUUAUUAAAUUAU [ENG1/3-D1] (Eterna round: R96, puzzle: Exclusion NG 1)", "apparent KD of MS2 coat protein": "0.057 µM"}
{"seq.string": "UCGUUUCGUGUAGGAUAUUGGCCUUCUCUGGGUCGAGAAGGACAUGAGGAUCACCCAUGUAUGUUAUUAUCACGCGUGGCGCAU [Design 83] (Eterna round: R96, puzzle: Exclusion NG 1)", "apparent KD of MS2 coat protein": "0.0282 µM"}
{"seq.string": "GUCACAUGGGUGUAGAAUCACAUGAGGAUCACCCAUGUGACUAACAAGCUUUUUGCUCGUCUUAUGUCUAUGUGAAA [Stov1/17-A1] (Eterna round: R97, puzzle: Sensor, turn-off variant 1)", "apparent KD of MS2 coat protein": "0.0405 µM"}

For the sequence shown here, AGUUGGCGAGGAUAUACAUGAGGAUCACCCAUGUGAGAGAUAGUAGUGAGGUCGAUUAGUAGAAGGCGCUGACA [Mat X3R4 m13] (Eterna round: R97, puzzle: Exclusion 3) , give the reported apparent KD of MS2 coat protein. 0.353 µM

Follow-up item: GGUACUCAUGUGAGGAUAUGCUCGAAUGCAGACGAGCAGAAGGUACAUGAGGAUCACCCAUGUACCAUAAAGUA [Eternabot (Original) Solution 1] (Eterna round: R97, puzzle: Brourd's mod of Exclusion 4) 0.0131 µM

# repeat for AAUAACAAGCCGAUCCUUUACAUGAGGAUCACCCAUGUGCUCGUCUUGUAAAGUACUAUCACGAAAGUGAUAGUACA (Eterna round: R97, puzzle: Sensor, turn-off variant 1) 0.027 µM

Thanks! And ACUCCAUAUGUGAGGAUAUGGAAAGAAAAUAAAAUCCAGAAGGCACAUGAGGAUCACCCAUGUACCGCAGGGAC [BmEX4 A.29] (Eterna round: R97, puzzle: Brourd's mod of Exclusion 4) ? 0.0145 µM

Same lookup for GUACUGACAGGAUAUACAUGAGGAUCACCCAUGUGCCUUAGCGCUACAAAAGUAGCGUGUAGAAGGGUCUGUAC [Omei Ex3 Model Bachelor's Dilema v15] (Eterna round: R97, puzzle: Exclusion 3) , please. 0.0154 µM

Consider next the sequence AAGGCGCGCGUAGGAUAUCACCGCAAAAGUCGAUGAGAAGGGCGAGUGCAUGGUGUCCUAACUUGAGGAUCACCCAAGUAAAGA [Mutated MS2 EX1.22] (Eterna round: R96, puzzle: Exclusion NG 1) in the same way. 0.0565 µM

Same question for UAGAUGGGAGGAUAUACGUAGAUGCAGGUUCGUGUGGUGCUACAUGAGGAUCACCCAUGUAGAAGGCCCGUCUU [JL-ex2-2.29 Mayanne mod] (Eterna round: R96, puzzle: Exclusion 2) please. 0.0184 µM

Proceed to GAUGGUCGAGGAUAUGCACCAGGGUCGACCUACUAGCGAAGACAUGAGGAUCACCCAUGUAGAAGGUGGCGGUU [Eternabot (L2) Solution 75] (Eterna round: R97, puzzle: Exclusion 2) 0.0824 µM

What do you get for CUGAGUAGAGGAUAUACAUGAGGAUCACCCAUGUAAAGUAGCUUGCGUACAGGCAGAUGUAGAAGGUUAUUCGG [Mod of JL 13 - Jieux - Exclusion 3] (Eterna round: R97, puzzle: Exclusion 3) ? 0.0509 µM

Also, UGCAUGUAAGGAUAUGCAUCCGCCGACGUCCCGGCGGCACAGCAGAAGGUACAUGAGGAUCACCCAUGUGUCCC [Qusousar] (Eterna round: R96, puzzle: Exclusion 4) please. 0.031 µM

Param item: AAAUCGGUGGAGGAUAUUGUACAGGAAACGGUGCGAGAAGGUUACACAUGAGGAUCACCCAUGUUAAAUAGCGA [EX6 #56] (Eterna round: R97, puzzle: Exclusion 6) 0.0221 µM

Can you check GUAAAACAUGUAGGAUAUGCGUGGCGAAGCUAUGCAGAAGGACAUGAGGAUCACCCAUGUUAAAGCGUCUGCGUACAGAUGCAA [Mat - Exclusion NG 1 - Mod of JL - D94] (Eterna round: R96, puzzle: Exclusion NG 1) next? 0.0292 µM

Next record, please: AUUGAUAGCACAGGAUAUUGAGAUUUGAAUUGACAAGAAGGGUGUACAUGAGGAUCACCCAUGUAAUGGUUGAGUGGUUGAUUA [JR_ExcNG1_Sub003] (Eterna round: R96, puzzle: Exclusion NG 1) 1.14 µM

Then this sequence: UAACGGGCUUCUUCGUUUACAACAUGAGGAUCACCCAUGUUCGAGGAUAUCCACUAAGCUCUUCAGGAGAAGGCGAACAUAAUG [Rizaoran] (Eterna round: R96, puzzle: Exclusion NG 3) 0.0146 µM

Quick one: CGCAGACGAGGAUAUAGAUGGAAUGACAUGAGGAUCACCCAUGUGAUCGAUCUAUUGGGUUUAGAAGGUGUCUGCG [JR_Ex5_Sub046] (Eterna round: R97, puzzle: Exclusion 5) 0.0152 µM
